The values you see were collected from paper PMC4472624.

Assay: Pharmacokinetics of daptomycin in patients undergoing low-flow CVVHDF
Type: in vivo, human
Conditions: human, blood, iv; 6 mg/kg i.v. every 48 hours, ICU patients on low-flow CVVHDF, HPLC; mean of three patients; read-out: volume of distribution (Vd)
Procedure: DAP (6 mg/kg) was administered intravenously every 48 hours to CVVHDF patients in the ICU. Blood and filtrate samples were collected at 0, 1, 1.5, 2, 5, 12, 24, and 48 hours after infusion. All collected samples were analyzed using HPLC according to the method of Tobin et al.. Maximum concentration (Cmax), elimination half-life (t1/2), area AUC, Cmin, volume of distribution (Vd), clearance (CL), fraction unbound, and sieving coefficient (Sc) were evaluated. […]
Measurement label: Vd (L)
Use L as the unit, but write only the number.

Qu. Which Vd is listed for CCCCCCCCCC(=O)N[C@@H](Cc1c[nH]c2ccccc12)C(=O)N[C@H](CC(N)=O)C(=O)N[C@@H](CC(=O)O)C(=O)N[C@@H]1C(=O)NCC(=O)N[C@@H](CCCN)C(=O)N[C@@H](CC(=O)O)C(=O)N[C@H](C)C(=O)N[C@@H](CC(=O)O)C(=O)NCC(=O)N[C@H](CO)C(=O)N[C@@H]([C@H](C)CC(=O)O)C(=O)N[C@@H](CC(=O)c2ccccc2N)C(=O)O[C@@H]1C [DAP, daptomycin] ?
Ans. 26

---

Experiment: Pharmacokinetics of daptomycin in patients undergoing low-flow CVVHDF
Assay type: in vivo, human
Conditions: human, blood, iv, 6 mg/kg, 6 mg/kg i.v. every 48 hours, low-flow CVVHDF, HPLC; single patient, third listed; read-out: area under the concentration-time curve (AUC)
Measurement label: AUC (µg·h/mL)
Use µg·h/mL as the unit, but write only the number.

Qu. Which AUC is listed for CCCCCCCCCC(=O)N[C@@H](Cc1c[nH]c2ccccc12)C(=O)N[C@H](CC(N)=O)C(=O)N[C@@H](CC(=O)O)C(=O)N[C@@H]1C(=O)NCC(=O)N[C@@H](CCCN)C(=O)N[C@@H](CC(=O)O)C(=O)N[C@H](C)C(=O)N[C@@H](CC(=O)O)C(=O)NCC(=O)N[C@H](CO)C(=O)N[C@@H]([C@H](C)CC(=O)O)C(=O)N[C@@H](CC(=O)c2ccccc2N)C(=O)O[C@@H]1C ?
Ans. 1260

---

Experiment: Pharmacokinetics of daptomycin in patients undergoing low-flow CVVHDF
Format: in vivo, human
Conditions: human, blood, iv, 6 mg/kg, 6 mg/kg i.v. every 48 hours, low-flow CVVHDF, HPLC; single patient, third listed; read-out: elimination half-life (t1/2) (converted)
Measurement label: half-life (h)
Use h as the unit, but write only the number.

Qu. Which half-life is listed for CCCCCCCCCC(=O)N[C@@H](Cc1c[nH]c2ccccc12)C(=O)N[C@H](CC(N)=O)C(=O)N[C@@H](CC(=O)O)C(=O)N[C@@H]1C(=O)NCC(=O)N[C@@H](CCCN)C(=O)N[C@@H](CC(=O)O)C(=O)N[C@H](C)C(=O)N[C@@H](CC(=O)O)C(=O)NCC(=O)N[C@H](CO)C(=O)N[C@@H]([C@H](C)CC(=O)O)C(=O)N[C@@H](CC(=O)c2ccccc2N)C(=O)O[C@@H]1C ?
Ans. 70.5

---

Experiment: Pharmacokinetics of daptomycin in patients undergoing low-flow CVVHDF
Format: in vivo, human
Conditions: human, blood, iv, 6 mg/kg, 6 mg/kg i.v. every 48 hours, low-flow CVVHDF, HPLC; single patient, first listed; read-out: area under the concentration-time curve (AUC)
Measurement label: AUC (µg·h/mL)
Use µg·h/mL as the unit, but write only the number.

Qu. Which AUC is listed for CCCCCCCCCC(=O)N[C@@H](Cc1c[nH]c2ccccc12)C(=O)N[C@H](CC(N)=O)C(=O)N[C@@H](CC(=O)O)C(=O)N[C@@H]1C(=O)NCC(=O)N[C@@H](CCCN)C(=O)N[C@@H](CC(=O)O)C(=O)N[C@H](C)C(=O)N[C@@H](CC(=O)O)C(=O)NCC(=O)N[C@H](CO)C(=O)N[C@@H]([C@H](C)CC(=O)O)C(=O)N[C@@H](CC(=O)c2ccccc2N)C(=O)O[C@@H]1C ?
Ans. 471
